Entries annotated with measured shrunken log2 fold change
Test system: Escherichia coli TOP10
protocol-description: shrunken log2 fold change of peptide-encoding DNA abundance (4.5 h post-induction vs induction); higher = less antimicrobial activity (less host growth inhibition)
test-conditions: time post-induction: 4.5 h; library: site-saturation at positions 5, 18, 19, 20
Please give the numeric answer without any surrounding text.

These solved cases illustrate the format of a correct answer.
chain=RRIRVRPPRLPRPRPRPAMSPRP assay_target="Escherichia coli TOP10" experimental_result=-0.096
chain=RRIRMRPPRLPRPRPRPQNSPRP assay_target="Escherichia coli TOP10" experimental_result=-0.0933
chain=RRIRWRPPRLPRPRPRPYNPPRP assay_target="Escherichia coli TOP10" experimental_result=-1.48
chain=RRIRHRPPRLPRPRPRPEYAPRP assay_target="Escherichia coli TOP10" experimental_result=0.0953
chain=RRIRTRPPRLPRPRPRPFWMPRP assay_target="Escherichia coli TOP10" experimental_result=-0.111

Request: Report shrunken log2 fold change for RRIRTRPPRLPRPRPRPTQHPRP
Response: 0.22

Request: Report shrunken log2 fold change for RRIRQRPPRLPRPRPRPRLEPRP
Response: 0.109

Request: Report shrunken log2 fold change for RRIRSRPPRLPRPRPRPDEQPRP
Response: 0.202

====

Tested on: Escherichia coli TOP10
protocol-description: shrunken log2 fold change of peptide-encoding DNA abundance (4.5 h post-induction vs induction); higher = less antimicrobial activity (less host growth inhibition)
test-conditions: time post-induction: 4.5 h; library: site-saturation at positions 5, 18, 19, 20
Entries annotated with measured shrunken log2 fold change
Please give the numeric answer without any surrounding text.

These solved cases illustrate the format of a correct answer.
chain=RRIRARPPRLPRPRPRPMSDPRP experimental_result=0.56
chain=RRIRHRPPRLPRPRPRPQLTPRP experimental_result=-0.261
chain=RRIRARPPRLPRPRPRPPIRPRP experimental_result=-0.131
chain=RRIRLRPPRLPRPRPRPHFHPRP experimental_result=-0.0565
chain=RRIRPRPPRLPRPRPRPPMNPRP experimental_result=-0.036

Request: Report shrunken log2 fold change for RRIRVRPPRLPRPRPRPAQPPRP
Response: 0.228

Request: Report shrunken log2 fold change for RRIRWRPPRLPRPRPRPGHPPRP
Response: 0.0932

Request: Report shrunken log2 fold change for RRIRQRPPRLPRPRPRPGNEPRP
Response: 0.177

Request: Report shrunken log2 fold change for RRIRNRPPRLPRPRPRPRKGPRP
Response: -0.16

Request: Report shrunken log2 fold change for RRIRWRPPRLPRPRPRPCARPRP
Response: 0.0277

====

System: Escherichia coli TOP10;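 note: peptides expressed intracellularly from a pBAD plasmid library in pooled LB shake-flask culture, induced with 0.3% L-arabinose, DNA abundance read by NGS, three biological replicates, DESeq2 with apeglm shrinkage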
protocol-description: shrunken log2 fold change of peptide-encoding DNA abundance (4.5 h post-induction vs induction); higher = less antimicrobial activity (less host growth inhibition)
test-conditions: time post-induction: 4.5 h; library: site-saturation at positions 5, 18, 19, 20
Entries annotated with measured shrunken log2 fold change
Please give the numeric answer without any surrounding text.

These solved cases illustrate the format of a correct answer.
chain=RRIRQRPPRLPRPRPRPDRPPRP experimental_result=0.00639
chain=RRIRPRPPRLPRPRPRPNDKPRP experimental_result=-0.52
chain=RRIRMRPPRLPRPRPRPDKKPRP experimental_result=-0.0148

Request: Report shrunken log2 fold change for RRIRMRPPRLPRPRPRPSRHPRP
Response: 0.228

Request: Report shrunken log2 fold change for RRIRTRPPRLPRPRPRPPYPPRP
Response: 0.0259

Request: Report shrunken log2 fold change for RRIRIRPPRLPRPRPRPLVNPRP
Response: -0.814

Request: Report shrunken log2 fold change for RRIRLRPPRLPRPRPRPINYPRP
Response: -0.857

Request: Report shrunken log2 fold change for RRIRRRPPRLPRPRPRPGCYPRP
Response: 0.17

Request: Report shrunken log2 fold change for RRIRTRPPRLPRPRPRPPKCPRP
Response: -0.339

Request: Report shrunken log2 fold change for RRIRQRPPRLPRPRPRPCATPRP
Response: -0.0476

Request: Report shrunken log2 fold change for RRIRHRPPRLPRPRPRPGWRPRP
Response: 0.232

Request: Report shrunken log2 fold change for RRIRIRPPRLPRPRPRPVWHPRP
Response: -0.413
